Hello, the source for this data is the kinase profiling compilation of Christmann-Franck et al. (2016), in case you need it.

residual activity listing for selected compounds.
study_system: EPHA1 (human) (UniProt P21709)
Sequence (P21709 whole entry, looked up): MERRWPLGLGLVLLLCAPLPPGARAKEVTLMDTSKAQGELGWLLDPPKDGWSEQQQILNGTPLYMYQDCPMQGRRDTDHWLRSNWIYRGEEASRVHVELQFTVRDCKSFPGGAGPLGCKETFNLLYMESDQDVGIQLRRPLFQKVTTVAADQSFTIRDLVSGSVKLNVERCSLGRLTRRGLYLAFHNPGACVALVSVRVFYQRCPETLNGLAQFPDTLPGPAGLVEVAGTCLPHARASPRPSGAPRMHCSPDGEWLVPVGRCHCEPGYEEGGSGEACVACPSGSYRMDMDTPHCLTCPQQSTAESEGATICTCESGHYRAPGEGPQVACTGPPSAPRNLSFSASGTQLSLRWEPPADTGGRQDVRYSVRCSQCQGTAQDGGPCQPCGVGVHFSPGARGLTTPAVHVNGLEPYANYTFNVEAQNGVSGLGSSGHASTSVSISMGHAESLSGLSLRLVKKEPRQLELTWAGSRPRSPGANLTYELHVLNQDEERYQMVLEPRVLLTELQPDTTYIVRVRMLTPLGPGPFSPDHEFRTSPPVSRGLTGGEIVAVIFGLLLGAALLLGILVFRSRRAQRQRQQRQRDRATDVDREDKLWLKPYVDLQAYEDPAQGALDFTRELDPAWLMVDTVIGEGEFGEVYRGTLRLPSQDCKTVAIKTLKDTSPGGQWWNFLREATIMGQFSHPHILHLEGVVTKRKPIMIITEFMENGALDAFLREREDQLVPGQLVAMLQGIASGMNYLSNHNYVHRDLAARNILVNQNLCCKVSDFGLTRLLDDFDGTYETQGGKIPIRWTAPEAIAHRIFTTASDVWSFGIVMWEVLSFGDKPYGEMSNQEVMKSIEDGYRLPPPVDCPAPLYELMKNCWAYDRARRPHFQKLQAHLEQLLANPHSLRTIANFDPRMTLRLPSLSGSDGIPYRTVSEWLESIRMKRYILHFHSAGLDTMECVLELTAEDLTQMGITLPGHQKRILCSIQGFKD
assay_notes: radiometric filter-binding kinase assay, Kinase HotSpot
test_conditions: compound 0.5 µM; ATP 10 µM
quantity: residual activity (%)

>>> print(df.to_string())
                               smiles_record  experimental_value
 0  COc1ccc(C(=O)Nc2sc3c(c2C(N)=O)CCCC3)cc1OC                88.1
 1  NC(=O)c1cccc(-c2cc(Nc3ccc(OC(F)(F)F)cc3)ncn2)c1                90.1
 2      CN(C)c1ccc(/C=C2\C(=O)Nc3ccccc32)cc1                93.7
 3           Ic1cccc(CSc2nnc(-c3ccncc3)o2)c1                  97
 4       Fc1ccc(-c2nc3n(c2-c2ccncc2)CCS3)cc1                98.2
 5  COc1cc(Nc2c(C#N)cnc3cc(OCCCN4CCN(C)CC4)c(OC)cc23)c(Cl)cc1Cl                97.7
 6  O=C(c1cc2cc(O)ccc2[nH]1)c1cc2cc(O)ccc2[nH]1                81.1
 7     COc1ccc2c(c1)/C(=C/c1cnc[nH]1)C(O)=N2                97.3
 8  COc1ccc(S(=O)(=O)N(CCO)c2ccccc2CN(C)C/C=C/c2ccc(Cl)cc2)cc1                 101
 9  COc1ccc2c(c1)c(C1=C(c3c[nH]c4ccccc34)C(=O)NC1=O)cn2CCCN(C)C                76.2
10  Cc1cccc(-c2nc(C(C)(C)C)[nH]c2-c2ccc3c(c2)OCO3)n1                 124

----------
study_system: PDGFRB (human) (UniProt P09619)
Sequence (P09619 whole entry, looked up): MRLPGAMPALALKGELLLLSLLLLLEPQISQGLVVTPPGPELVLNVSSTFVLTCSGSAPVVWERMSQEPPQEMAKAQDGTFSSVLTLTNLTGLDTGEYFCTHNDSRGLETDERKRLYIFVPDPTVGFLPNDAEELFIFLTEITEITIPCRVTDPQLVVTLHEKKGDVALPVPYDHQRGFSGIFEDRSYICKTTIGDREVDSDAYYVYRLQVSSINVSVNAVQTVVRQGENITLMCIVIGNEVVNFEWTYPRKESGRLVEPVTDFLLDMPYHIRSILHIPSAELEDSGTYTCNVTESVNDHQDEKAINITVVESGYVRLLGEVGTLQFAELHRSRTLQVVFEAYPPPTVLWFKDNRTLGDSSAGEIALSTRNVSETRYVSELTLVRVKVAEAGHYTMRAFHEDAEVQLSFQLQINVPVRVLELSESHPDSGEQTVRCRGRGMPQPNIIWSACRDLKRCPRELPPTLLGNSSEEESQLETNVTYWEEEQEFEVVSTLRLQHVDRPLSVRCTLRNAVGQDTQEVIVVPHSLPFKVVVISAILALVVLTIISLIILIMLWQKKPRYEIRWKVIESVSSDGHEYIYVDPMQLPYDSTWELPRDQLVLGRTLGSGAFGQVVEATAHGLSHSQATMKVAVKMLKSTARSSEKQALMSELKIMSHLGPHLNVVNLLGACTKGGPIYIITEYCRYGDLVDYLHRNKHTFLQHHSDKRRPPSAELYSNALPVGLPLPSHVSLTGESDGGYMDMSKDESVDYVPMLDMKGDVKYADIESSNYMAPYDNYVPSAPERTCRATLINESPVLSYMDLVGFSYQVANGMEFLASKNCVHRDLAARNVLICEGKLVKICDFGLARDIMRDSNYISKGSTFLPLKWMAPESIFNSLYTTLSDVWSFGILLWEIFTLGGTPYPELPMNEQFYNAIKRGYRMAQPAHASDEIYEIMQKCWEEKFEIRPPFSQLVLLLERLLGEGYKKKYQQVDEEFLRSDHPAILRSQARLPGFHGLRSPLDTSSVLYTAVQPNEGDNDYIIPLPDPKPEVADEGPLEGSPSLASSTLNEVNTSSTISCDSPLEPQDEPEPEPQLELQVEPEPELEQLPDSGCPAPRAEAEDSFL
assay_notes: radiometric filter-binding kinase assay, Kinase HotSpot
test_conditions: compound 0.5 µM; ATP 10 µM
quantity: residual activity (%)

>>> print(df.to_string())
                              smiles_record                     study_system  experimental_value
0  O=C1Nc2ccc(Br)cc2/C1=C\c1cc2c([nH]1)CCCC2  PDGFRB (human) (UniProt P09619)                58.8
1  COc1ccc2c(c1)c(C1=C(c3c[nH]c4ccccc34)C(=O)NC1=O)cn2CCCN(C)C  PDGFRB (human) (UniProt P09619)                75.8
2    COc1ccc(Cl)cc1NC(=O)Nc1cc(C)nc2ccccc12  PDGFRB (human) (UniProt P09619)                 105
3           Ic1cccc(CSc2nnc(-c3ccncc3)o2)c1  PDGFRB (human) (UniProt P09619)                97.7
4  N#Cc1c[nH]c2c[nH]/c(=N\Cc3cccnc3)cc2/c1=N\c1ccc(F)c(Cl)c1  PDGFRB (human) (UniProt P09619)                 101
5  COc1cc2ncnc(Nc3ccc(Oc4ccccc4)cc3)c2cc1OC  PDGFRB (human) (UniProt P09619)                95.6
6       CCCCc1c(-c2ccc(OC)cc2)[nH]c2nccnc12  PDGFRB (human) (UniProt P09619)                95.9
7  CN(C)S(=O)(=O)c1ccc2c(c1)/C(=C/c1cc3c([nH]1)CCCC3)C(=O)N2  PDGFRB (human) (UniProt P09619)                96.5
